Recorded Kb for the following compounds
- assayed.system: gastrin (CCK2) receptors (Rattus norvegicus)
- Construct: The stomach was excised and flushed with ca. 1 ml of unbuffered physiological saline solution; from tissue; host or cells: isolated, lumen-perfused stomach of immature rats (33-50 g, ca. 21 days old)
- Sequence (P30553 1-452): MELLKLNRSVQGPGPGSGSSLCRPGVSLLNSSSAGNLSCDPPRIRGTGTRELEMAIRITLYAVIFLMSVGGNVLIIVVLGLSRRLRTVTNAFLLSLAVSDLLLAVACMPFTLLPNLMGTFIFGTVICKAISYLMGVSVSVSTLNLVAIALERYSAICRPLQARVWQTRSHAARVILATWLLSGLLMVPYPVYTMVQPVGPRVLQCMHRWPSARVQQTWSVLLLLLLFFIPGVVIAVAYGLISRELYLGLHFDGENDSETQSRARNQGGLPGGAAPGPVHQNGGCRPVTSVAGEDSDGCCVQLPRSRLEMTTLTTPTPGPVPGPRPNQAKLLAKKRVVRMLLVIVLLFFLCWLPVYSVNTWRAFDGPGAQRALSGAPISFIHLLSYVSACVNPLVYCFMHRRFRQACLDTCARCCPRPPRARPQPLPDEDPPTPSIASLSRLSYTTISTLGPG
- run.description: immature rat stomach assay, gastrin (CCK2) antagonist activity against pentagastrin-stimulated acid secretion
- stated.conditions: isolated immature rat stomach, 60 min incubation, then cumulative pentagastrin dose-response curves, read-out: Rat Stomach pKB (converted)
I only need the number, in µM, no unit after it.

O=C(O)c1cccc2[nH]c(-c3nc(C4CCCCC4)[nH]c3COC34CC5CC(CC(C5)C3)C4)nc12; 0.372
O=C(O)Cc1ccc2oc(-c3nc(C4CCCCC4)[nH]c3COC34CC5CC(CC(C5)C3)C4)nc2c1; 2.04
O=C(O)c1ccc2nc(-c3nc(C4CCCCC4)[nH]c3COC34CC5CC(CC(C5)C3)C4)oc2c1; 1.62
O=C(O)c1ccc2oc(-c3nc(C4CCCCC4)[nH]c3COC34CC5CC(CC(C5)C3)C4)nc2c1; 3.31

Next:
stdin: For the compound O=C(O)c1ccc2[nH]c(-c3nc(C4CCCCC4)[nH]c3COC34CC5CC(CC(C5)C3)C4)nc2c1 , what Kb is on record?
stdout: 3.39

Attribution: patent US7034048B2
